# Assay remarks: compound binding in COS7 lysate, probe aLAP1, primary screen, cell lysate, small-molecule microarray (AID 1124);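 further: lysate comes from COS7 cells expressing LAP1 and is applied at 0.3 µg/mL; score merges spot fluorescence near 667 nm with signal-to-noise over triplicate slides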
# Cond: probe aLAP1, fluorescence, higher = more signal
Property label: composite z-score
Please give only the number in your answer, with no unit.

{"Compound": "CC(C)=C1C(=O)C(c2ccccc2)=C2CN3C(=O)N(CCc4ccccc4)C(=O)[C@]3(Cc3ccc(F)cc3)[C@H]21", "composite z-score": 0.34}
{"Compound": "COc1ccc(O[C@H]2C=C[C@@H](c3ccccc3)O[C@@H]2COC(=O)CCC(C)=NO[C@H](C)c2cn([C@@H]3COC[C@H]3O)nn2)cc1", "composite z-score": 0.263}
{"Compound": "CCCCc1nc2c(c3c1C[C@H](C)OC3)CN(CCC(C)C)CC2", "composite z-score": 0.44}

Short answer for "CCc1cc2c(nc1CC)CCN(CCC(C)=NO[C@@H](C)c1cc(-c3c(C)cc(C)cc3C)no1)C2" : composite z-score was -0.126

Short answer for "CCCC[C@H]1OB(O)C[C@H]2C1=C(C)C[C@H]1C(=O)N(C)C(=O)[C@H]12" : composite z-score was 0.308

Short answer for "CCCNC(=O)OC[C@H]1O[C@H](CCON=C2[C@H]3CCn4c(=O)n(-c5ccccc5)c(=O)n4[C@H]3[C@H](O)[C@@H]3O[C@H]23)C=C[C@@H]1Oc1ccc(OC)cc1" : composite z-score was 0.587

Short answer for "CC=CC1=C(CO)[C@H](O)[C@H]2O[C@H]2[C@H]1O" : composite z-score was -0.182
